Biological target: Transient receptor potential cation channel subfamily V member 1 (Rattus norvegicus)
Sequence (O35433 whole entry): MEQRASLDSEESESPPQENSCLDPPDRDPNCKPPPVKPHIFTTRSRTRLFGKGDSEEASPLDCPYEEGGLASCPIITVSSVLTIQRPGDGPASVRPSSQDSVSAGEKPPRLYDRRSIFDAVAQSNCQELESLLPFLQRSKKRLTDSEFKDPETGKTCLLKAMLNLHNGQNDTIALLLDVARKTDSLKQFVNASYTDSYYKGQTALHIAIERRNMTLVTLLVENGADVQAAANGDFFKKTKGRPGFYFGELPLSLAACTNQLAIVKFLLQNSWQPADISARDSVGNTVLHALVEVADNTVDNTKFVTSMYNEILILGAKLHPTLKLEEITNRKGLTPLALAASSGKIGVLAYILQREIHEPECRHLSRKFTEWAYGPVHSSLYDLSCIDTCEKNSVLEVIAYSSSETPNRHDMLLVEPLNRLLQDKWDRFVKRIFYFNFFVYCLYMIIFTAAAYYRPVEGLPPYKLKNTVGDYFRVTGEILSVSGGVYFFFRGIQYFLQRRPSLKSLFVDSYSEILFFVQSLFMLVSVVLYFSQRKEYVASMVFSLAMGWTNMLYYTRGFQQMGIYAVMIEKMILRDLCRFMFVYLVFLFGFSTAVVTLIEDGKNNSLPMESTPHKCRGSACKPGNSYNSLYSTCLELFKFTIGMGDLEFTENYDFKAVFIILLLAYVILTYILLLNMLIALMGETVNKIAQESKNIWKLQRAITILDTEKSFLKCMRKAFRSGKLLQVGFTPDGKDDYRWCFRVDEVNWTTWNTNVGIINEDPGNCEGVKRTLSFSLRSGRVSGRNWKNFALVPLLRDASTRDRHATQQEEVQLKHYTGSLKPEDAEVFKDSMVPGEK
Assay: Blockade of capsaicin-activated rat TRPV1 channel expressed in Xenopus oocytes
QUANTITY MEASURED: IC50
Just the number plus its unit, please.

ENTRY SMILES: NC(N)=NCCC[C@H](N)C(=O)N[C@H]1C[C@@H](C(=O)NCCc2ccc(Cl)cc2Cl)N(Cc2ccc(Cl)cc2Cl)C1
RESULT VALUE: 700 nM
--
ENTRY SMILES: N=C(N)NCCC[C@H](N)C(=O)N(CCc1ccc(Cl)cc1Cl)CC(=O)NCCc1ccc(Cl)cc1Cl
RESULT VALUE: 170 nM
--
ENTRY SMILES: NC(=O)CN(CCc1ccc(Cl)cc1Cl)C(=O)CN(CCc1c[nH]c2ccccc12)C(=O)[C@@H](N)CCCN=C(N)N
RESULT VALUE: 520 nM

For every record below, what is its IC50?
1. N=C(N)NCCC[C@H](N)C(=O)N(CCc1ccc(Cl)cc1Cl)CC(=O)N(CCc1ccc(Cl)cc1Cl)CC(N)=O
2. N=C(N)NCCC[C@H](N)C(=O)N(CCc1c[nH]c2ccccc12)CC(=O)N(CCc1c[nH]c2ccccc12)CC(N)=O

700 nM
1330 nM

Go through the list and state IC50 for each entry.
1. N=C(N)NCCC[C@H](N)C(=O)N(CCc1ccc(Cl)cc1Cl)CC(=O)N(CCc1c[nH]c2ccccc12)CC(N)=O
2. NCCCCCCN(CCc1ccc(Cl)cc1Cl)CC(=O)N(CCc1ccc(Cl)cc1Cl)CC(N)=O

["180 nM", "400 nM"]

* * *

Molecular target: Glutamate NMDA receptor; Grin1/Grin2a (Rattus norvegicus, UniProt P35439+Q00959)
Sequence (Q00959 whole entry, other chains not shown): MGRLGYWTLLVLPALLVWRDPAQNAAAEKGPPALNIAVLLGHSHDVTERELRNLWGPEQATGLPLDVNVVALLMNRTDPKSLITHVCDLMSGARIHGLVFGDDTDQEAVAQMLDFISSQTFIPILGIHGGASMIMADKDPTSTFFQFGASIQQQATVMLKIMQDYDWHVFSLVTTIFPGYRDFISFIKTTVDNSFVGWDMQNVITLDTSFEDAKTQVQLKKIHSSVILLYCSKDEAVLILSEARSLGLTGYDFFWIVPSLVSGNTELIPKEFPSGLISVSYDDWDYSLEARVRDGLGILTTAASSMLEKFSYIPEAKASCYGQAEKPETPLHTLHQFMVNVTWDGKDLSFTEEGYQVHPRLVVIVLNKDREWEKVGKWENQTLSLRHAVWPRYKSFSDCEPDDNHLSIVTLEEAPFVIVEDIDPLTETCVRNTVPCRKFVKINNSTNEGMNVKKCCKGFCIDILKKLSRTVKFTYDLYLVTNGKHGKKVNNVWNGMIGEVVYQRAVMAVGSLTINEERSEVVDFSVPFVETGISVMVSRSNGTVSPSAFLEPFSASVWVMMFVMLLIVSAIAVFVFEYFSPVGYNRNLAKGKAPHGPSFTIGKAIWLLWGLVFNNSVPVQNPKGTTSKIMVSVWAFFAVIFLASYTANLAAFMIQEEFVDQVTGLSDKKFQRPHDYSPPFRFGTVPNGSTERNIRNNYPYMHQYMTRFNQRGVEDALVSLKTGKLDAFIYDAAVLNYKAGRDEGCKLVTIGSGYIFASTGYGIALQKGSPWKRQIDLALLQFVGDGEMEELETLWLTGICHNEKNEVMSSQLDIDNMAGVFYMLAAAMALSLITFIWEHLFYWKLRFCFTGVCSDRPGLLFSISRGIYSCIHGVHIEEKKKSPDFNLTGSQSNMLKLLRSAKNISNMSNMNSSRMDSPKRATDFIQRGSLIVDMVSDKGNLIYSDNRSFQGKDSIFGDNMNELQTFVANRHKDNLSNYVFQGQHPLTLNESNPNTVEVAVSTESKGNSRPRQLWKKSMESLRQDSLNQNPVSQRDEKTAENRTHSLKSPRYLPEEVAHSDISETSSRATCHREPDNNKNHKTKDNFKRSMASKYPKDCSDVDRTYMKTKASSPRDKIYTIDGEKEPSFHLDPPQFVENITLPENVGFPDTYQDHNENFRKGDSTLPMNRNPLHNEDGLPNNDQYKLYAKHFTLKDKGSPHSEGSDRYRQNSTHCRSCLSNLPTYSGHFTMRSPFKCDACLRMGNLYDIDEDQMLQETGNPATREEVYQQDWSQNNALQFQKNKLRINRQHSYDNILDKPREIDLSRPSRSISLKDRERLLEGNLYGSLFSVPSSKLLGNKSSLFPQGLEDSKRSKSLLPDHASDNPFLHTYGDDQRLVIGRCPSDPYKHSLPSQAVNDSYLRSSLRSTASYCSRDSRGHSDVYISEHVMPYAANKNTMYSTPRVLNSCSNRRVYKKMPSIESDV
Experiment: Blockade of L-glutamate/glycine-activated rat NR1/NR2A NMDA receptor expressed in Xenopus oocytes
QUANTITY MEASURED: IC50 (µM)
Numbers only, in µM.

In the examples that follow, each entry is paired with its recorded IC50.
ENTRY SMILES: N=C(N)NCCC[C@H](N)C(=O)N(CCc1ccc(Cl)cc1Cl)CC(=O)N(CCc1ccc(Cl)cc1Cl)CC(N)=O
SYSTEM NAME: Glutamate NMDA receptor; Grin1/Grin2a (Rattus norvegicus, UniProt P35439+Q00959)
RESULT VALUE: 15
//
ENTRY SMILES: NCCCCCCN(CCc1ccc(Cl)cc1Cl)CC(=O)N(CCc1ccc(Cl)cc1Cl)CC(N)=O
SYSTEM NAME: Glutamate NMDA receptor; Grin1/Grin2a (Rattus norvegicus, UniProt P35439+Q00959)
RESULT VALUE: 3
//
ENTRY SMILES: NC(N)=NCCC[C@H](N)C(=O)N(CCc1c[nH]c2ccccc12)CC(=O)NCCc1c[nH]c2ccccc12
SYSTEM NAME: Glutamate NMDA receptor; Grin1/Grin2a (Rattus norvegicus, UniProt P35439+Q00959)
RESULT VALUE: 18

Could you tell me IC50 for each of these compounds? They are listed below.
1. NC(N)=NCCC[C@H](N)C(=O)N[C@H]1C[C@@H](C(=O)NCCc2ccc(Cl)cc2Cl)N(Cc2ccc(Cl)cc2Cl)C1
2. N=C(N)NCCC[C@H](N)C(=O)N(CCc1c[nH]c2ccccc12)CC(=O)N(CCc1c[nH]c2ccccc12)CC(N)=O
3. NC(=O)CN(CCc1ccc(Cl)cc1Cl)C(=O)CN(CCc1c[nH]c2ccccc12)C(=O)[C@@H](N)CCCN=C(N)N
4. N=C(N)NCCC[C@H](N)C(=O)N(CCc1ccc(Cl)cc1Cl)CC(=O)N(CCc1c[nH]c2ccccc12)CC(N)=O
5. N=C(N)NCCC[C@H](N)C(=O)N(CCc1ccc(Cl)cc1Cl)CC(=O)NCCc1ccc(Cl)cc1Cl

8
207
17
166
0.8

Where do the numbers come from? From ChEMBL document CHEMBL1138312.
